Listed below: Population Hoechst High Intensity Objects (%) values for each entry.
test system: U2OS; assay: Multiplex assay against U2OS; format: toxicity, cell-based; settings: human, 12 h, 10 µM, compound concentration 10 uM, replicate 2
MEASURE: Population Hoechst High Intensity Objects (%)

COMPOUND	UNIT ABBREVIATION	VALUE
CNC[C@H](O)c1ccc(O)c(O)c1 [EPINEPHRINE]	%	9
CC(=O)O[C@H]1C(=O)[C@@]2(C)[C@H]([C@H](OC(=O)c3ccccc3)[C@]3(O)C[C@H](OC(=O)[C@H](O)[C@@H](NC(=O)c4ccccc4)c4ccccc4)C(C)=C1C3(C)C)[C@]1(OC(C)=O)CO[C@@H]1C[C@@H]2O [PACLITAXEL]	%	2
O=C(NCC(=O)N1CC[C@H](N[C@H]2CC[C@@](O)(c3ccc(-c4ncccn4)cn3)CC2)C1)c1cccc(C(F)(F)F)c1 [PF-4136309]	%	1
COc1c(C)cc(NC(=O)c2nn(Cc3ccc(F)cc3)c3c2CN(C(=O)c2ccc[nH]2)C[C@]3(C)C(N)=O)cc1C	%	8
CC[C@H]1OC(=O)[C@H](C)[C@@H](O[C@H]2C[C@@](C)(OC)[C@@H](O)[C@H](C)O2)[C@H](C)[C@@H](O[C@@H]2O[C@H](C)C[C@H](N(C)C)[C@H]2O)[C@@]2(C)CC(C)=C(O2)[C@H](C)[C@@H](O)[C@]1(C)O	%	4
O=C(O)Cc1ccccc1Nc1c(Cl)cccc1Cl [DICLOFENAC]	%	3
Cc1nc2ccc(Oc3ccc(F)cc3)cc2c(=O)n1C[C@H]1CCCN(C(C)C)C1.Cl	%	4
CSc1ccccc1N1CCN(CCCCCC(=O)NC2CCCc3ccccc32)CC1.Cl (stereo unspecified)	%	4
N[C@@]1(C(=O)O)CO[C@H]2[C@H](C(=O)O)[C@H]21 [LY-379268]	%	1
CN(C)c1ccnc2sc3c(=O)n(N4CCCCCC4)cnc3c12	%	5
COc1cc(C(=O)N(CCCc2ccccc2)Cc2ccc(CC(=O)O)cc2)cc(OC)c1C	%	1
CC(=O)NCCc1c(Cc2ccccc2)[nH]c2ccccc12 [LUZINDOLE]	%	1
c1cc(OCCCN2CCCCC2)ccc1CN1CCCCC1 [JNJ-5207852]	%	4
CC1(COc2ccc3c(c2)ncn3-c2ccc3cccc(N4CCC(N)CC4)c3n2)COC1 [CRENOLANIB]	%	24
CCCC(CCC)C(=O)O [VALPROIC ACID]	%	0
CCCN1CCC[C@@H]2Cc3n[nH]cc3C[C@H]21.Cl [QUINPIROLE HYDROCHLORIDE]	%	2

This collection of values is drawn from ChEMBL document CHEMBL5058577.
